# systemTested: Proteasome subunit beta type-8 (Mus musculus, UniProt P28063)
# Sequence (P28063 whole entry): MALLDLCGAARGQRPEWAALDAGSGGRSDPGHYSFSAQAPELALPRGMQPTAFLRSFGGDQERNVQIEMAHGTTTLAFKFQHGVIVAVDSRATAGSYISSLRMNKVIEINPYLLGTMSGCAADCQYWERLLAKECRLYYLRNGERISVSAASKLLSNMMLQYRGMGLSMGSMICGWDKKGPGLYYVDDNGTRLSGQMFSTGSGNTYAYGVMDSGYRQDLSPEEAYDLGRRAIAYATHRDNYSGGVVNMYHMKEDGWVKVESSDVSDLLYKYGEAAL
# assayNotes: Inhibition of LMP7 in mouse A20 cells by ELISA
pIC50: −log10 of the molar value.
Would you mind labelling by pIC50? At or over 7 is met, under is not met.

# givenSmiles, label
records = [
    ("CC1=C(C(=O)N[C@@H](C)C(=O)N[C@@H](Cc2c[nH]c3ccccc23)C(=O)N[C@@H](Cc2ccccc2)C(=O)[C@@]2(C)CO2)Cc2ccccc21", "met"),
    ("COc1ccc(C[C@H](NC(=O)[C@@H](C)NC(=O)[C@H]2CC[C@H](O)CC2)C(=O)N[C@@H](CC2CCC2)C(=O)[C@@]2(C)CO2)cc1", "not met"),
    ("COc1ccc(C[C@H](NC(=O)[C@@H](C)NC(=O)C2=C(C)c3ccccc3C2)C(=O)N[C@@H](Cc2ccccc2)C(=O)[C@@]2(C)CO2)cc1", "not met"),
    ("COc1ccc([C@@H](O)[C@H](NC(=O)[C@H](C)NC(=O)CN2CCOCC2)C(=O)N[C@@H](CC2=CCCC2)C(=O)[C@@]2(C)CO2)cc1", "met"),
]
